- System: HepG2
- Experiment Summary: cell viability relative to DMSO; higher = less toxic
- Measurement Conditions: 72 h; 10000 nM
Quantity: cell viability (%)
Note: unit % is implicit; provide only the numeric part.

Query: What value of measured cell viability is listed for CC(C)Oc1cccc(CC(=O)N2CCC[C@](CC[N+]34CCC(c5ccccc5)(CC3)CC4)(c3ccc(Cl)c(Cl)c3)C2)c1 ?
Result: 95.7

Query: Also, CN(C)C(=O)c1ccc(S(=O)(=O)c2ccc(NC(=O)[C@@](C)(O)C(F)(F)F)c(Cl)c2)cc1 please.
Result: 61

Query: Same read-out for O=c1c2ccccc2[se]n1-c1ccccc1 ?
Result: 106

Query: Same again, this time with CCOC(=O)c1ccccc1OC(N)=O [ethyl-2-(carbamoyloxy)benzoate]
Result: 103

Query: Could you do the same for CC(C)(O)C(=O)Nc1ccc([N+](=O)[O-])c(C(F)(F)F)c1 [2-hydroxyflutamide] , please?
Result: 98.1

Query: Also CCCOc1ccc(S(=O)(=O)N2CCN(CCO)CC2)cc1-c1nc2c(CCC)cn(CC)c2c(=O)[nH]1 ?
Result: 99.7

Query: # iterate: Fc1ccc2nc(CCC#Cc3ccccn3)cn2c1
Result: 106

Query: Request: COc1ccc(C2(CNC(=O)c3ccc(NC(=O)c4ccco4)cc3)CCOCC2)cc1
Result: 89.3

Query: Subsequent entry: N#CC(c1ccccc1)(c1ccccc1)c1ccccc1Cl
Result: 103

Query: Similarly, Nc1cc(C(F)(F)F)c(-c2cc(N3CCOCC3)nc(N3CCOCC3)n2)cn1 ?
Result: 10.5

Query: Input O=C(Nc1ccc(S(=O)(=O)C(F)(F)F)cc1)C1=CCN(c2ncccc2C(F)(F)F)CC1
Result: 38.6

Query: Next molecule: CC(=O)O[C@H]1C[C@H](O[C@H]2[C@@H](O)C[C@H](O[C@H]3[C@@H](O)C[C@H](O[C@H]4CC[C@@]5(C)[C@H](CC[C@@H]6[C@@H]5C[C@@H](O)[C@]5(C)[C@@H](C7=CC(=O)OC7)CC[C@]65O)C4)O[C@@H]3C)O[C@@H]2C)O[C@H](C)[C@H]1O[C@@H]1O[C@H](CO)[C@@H](O)[C@H](O)[C@H]1O [lanatoside-C]
Result: 5.9

Query: // same read-out, input: COc1ccc(CN(CCN(C)C)c2ccccn2)cc1
Result: 92.8

Query: Follow-up item: CN[C@H]1C(=O)N[C@@H]2Cc3ccc(cc3)Oc3cc4cc(c3O[C@@H]3O[C@H](C(=O)O)[C@@H](O)[C@H](O)[C@H]3NC(=O)CCCCCCCCC(C)C)Oc3ccc(cc3Cl)[C@@H](O)[C@@H]3NC(=O)[C@H](NC(=O)[C@@H]4NC(=O)[C@@H](NC2=O)c2cc(cc(O)c2Cl)Oc2cc1ccc2O)c1ccc(O)c(c1)-c1c(O[C@H]2O[C@H](CO)[C@@H](O)[C@H](O)[C@@H]2O)cc(O)cc1[C@@H](C(=O)NCCCN(C)C)NC3=O
Result: 116

Query: How about CC(C)=CCC/C(C)=C/CC/C(C)=C/CSc1ccccc1C(N)=O [farnesyl-thiosalicylic-acid-amide] ?
Result: 85.7

Query: Moving on to O=[N+]([O-])c1ccccc1S(=O)(=O)NCC1CCC(CNC[C@H]2CCc3ccccc3C2)CC1 (some centres not stated)
Result: 57.1

Query: One more molecule: CN(C)CCc1ccc(O)cc1
Result: 100

Query: Likewise for CN(C)c1nc(N)c(C(=O)Nc2cccnc2)nc1Cl ?
Result: 58.9

Query: How about N=C(N)NCCC[C@@H](N)C(=O)N[C@@H](CCCNC(=N)N)C(=O)N1CCC[C@H]1C(=O)N1C[C@H](O)C[C@H]1C(=O)NCC(=O)N[C@@H](Cc1cccs1)C(=O)N[C@@H](CO)C(=O)N1Cc2ccccc2C[C@@H]1C(=O)N1[C@H](C(=O)N[C@@H](CCCNC(=N)N)C(=O)O)C[C@@H]2CCCC[C@@H]21 [icatibant-acetate] ?
Result: 102

Query: Cc1cccc2c1CC[C@H](CN1CCC(c3c(Cl)cccc3Cl)CC1)C[C@@H]2O , same question.
Result: 38.5

Query: What do you have for CN(Cc1cnc2nc(N)nc(N)c2n1)c1ccc(C(=O)N[C@@H](CCC(=O)O)C(=O)O)cc1 [methotrexate] ?
Result: 18.6

Query: And Cc1cc(Cn2cnc3c2C[C@@H](C(=O)O)N(C(=O)C(c2ccccc2)c2ccccc2)C3)ccc1N(C)C ?
Result: 110
